Listed below: activity change, negative = inhibition values for each entry.
test: T. gondii growth inhibition with IFN-gamma, primary screen, cell-based (AID 1259416); conditions: Toxoplasma gondii growth in IFN-gamma-treated host cells; active compounds read low; concentration not given here;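 note: host cells are HeLa cells infected with Toxoplasma gondii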
Among all 69,000 compounds or so, about 2,600 (3.8%) were called active. Many of the other results were omitted from the sample, so actives are more common in it than they were.
Expressed in %, but write only the number.

Clc1ccc(-c2noc3c2CN(CCn2cc(Cl)cn2)CC3)cc1 ... -72.1
O=C(COc1ccccc1Cl)Nc1ccc(Oc2ccc(F)cc2)c(C(F)(F)F)c1 ... -7.01

Then there is this compound:
Could you tell me which activity change, negative = inhibition is on file for `CN(C)c1ncccc1CNC(=O)c1cnc2c(c1)nnn2C` ? 2.4
